Target: Pim-2 (Homo sapiens (Human))
Sequence (Q9P1W9 whole entry): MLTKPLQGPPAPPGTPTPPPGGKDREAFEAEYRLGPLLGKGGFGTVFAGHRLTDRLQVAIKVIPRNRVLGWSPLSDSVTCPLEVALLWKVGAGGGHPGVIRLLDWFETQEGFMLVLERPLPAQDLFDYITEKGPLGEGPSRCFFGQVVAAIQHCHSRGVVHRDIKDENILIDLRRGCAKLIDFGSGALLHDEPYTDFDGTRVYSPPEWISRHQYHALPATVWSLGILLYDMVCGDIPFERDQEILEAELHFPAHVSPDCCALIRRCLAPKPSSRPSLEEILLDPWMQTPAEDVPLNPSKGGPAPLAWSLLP
Test: Pim-Mn enzyme assay (HTRF, 384-well), Pim-2
Format: biochemical
Conditions: Pim-2 enzyme 0.5 pM, ATP 1.5 μM, BAD (S112) 0.5 μM, HTRF, 22-point curve; read-out: Pim-2-Mn IC50 IP
assay.endpoint: IC50

Incoming: What IC50 value was documented for this compound, `C[C@H]1NC(=O)c2cc(-c3cccc4c(=O)n(-c5cccnc5)c(NC(C)(C)C)nc34)[nH]c21` ?
Outgoing: 2.77 nM

Incoming: What IC50 value was documented for this compound, `Cc1nc2cccc(-c3cc4c([nH]3)CCNC4=O)c2nc1NCC(C)(C)C` ?
Outgoing: 0.6 nM

Incoming: What IC50 value was documented for this compound, `Cc1nc2cccc(-c3cc4c([nH]3)CCNC4=O)c2nc1NC(C)(C)CO` ?
Outgoing: 1.7 nM

Incoming: What IC50 value was documented for this compound, `COCCOCCn1c(NC(C)(C)C)nc2c(-c3cc4c([nH]3)[C@@H](C)NC4=O)cccc2c1=O` ?
Outgoing: 0.917 nM

Incoming: What IC50 value was documented for this compound, `Cc1nc2cccc(-c3cc4c([nH]3)CCNC4=O)c2nc1NC(C)(C)C(=O)O` ?
Outgoing: 191 nM

Incoming: What IC50 value was documented for this compound, `Cc1cccnc1-c1nc2c(-c3cc4c([nH]3)CCNC4=O)cccc2nc1C` ?
Outgoing: 257 nM

Incoming: What IC50 value was documented for this compound, `Cc1nc2ccc(F)c(-c3cc4c([nH]3)CNC4=O)c2nc1NC(C)(C)C` ?
Outgoing: 0.501 nM
